target: PDK1 (Homo sapiens); construct: His6 (N); assay: Test for the inhibition of PDK1 (flashplate, 33P-ATP); conditions: His6-PDK1 (1-50) 3.4 nM, 4 μM ATP, 30° C., 60 min; read-out: IC50 [PDK1] biochemical
OBSERVATION TYPE: IC50

Problem: // fetch PDK1 (Homo sapiens) IC50 for Cn1cc(-c2cnc3[nH]cc(-c4nnc([C@H](O)c5ccccc5Cl)o4)c3c2)cn1 (single isomer, unassigned)
Result: 0.5 to 1000 nM

Problem: // fetch PDK1 (Homo sapiens) IC50 for Cn1cc(-c2cnc3[nH]cc(-c4noc(Cc5ccccc5)n4)c3c2)cn1
Result: 1000 to 10000 nM

Problem: // fetch PDK1 (Homo sapiens) IC50 for COC(c1ccccc1)c1nnc(-c2c[nH]c3ncc(-c4cnn(C)c4)cc23)o1 (centres unmarked)
Result: 0.5 to 1000 nM

Problem: // fetch PDK1 (Homo sapiens) IC50 for Cn1cc(-c2cnc3[nH]cc(-c4cc(C(C)(O)c5ccccc5Cl)on4)c3c2)cn1 (centres unmarked)
Result: 0.5 to 1000 nM

Problem: // fetch PDK1 (Homo sapiens) IC50 for CC(O)(c1cc(-c2c[nH]c3ncc(-c4cnn(CC(=O)N5CCCCC5)c4)cc23)no1)c1ccccc1F (centres unmarked)
Result: 0.5 to 1000 nM

Problem: // fetch PDK1 (Homo sapiens) IC50 for Cn1cc(-c2cnc3[nH]cc(-c4nnc(Cc5ccccc5)o4)c3c2)cn1
Result: 0.5 to 1000 nM

###

// values below are reported IC50
Target: PDK1 (Homo sapiens, UniProt O15530)
Construct: endogenous in cells; host or cells: PC3 cells
Sequence (O15530 1-556): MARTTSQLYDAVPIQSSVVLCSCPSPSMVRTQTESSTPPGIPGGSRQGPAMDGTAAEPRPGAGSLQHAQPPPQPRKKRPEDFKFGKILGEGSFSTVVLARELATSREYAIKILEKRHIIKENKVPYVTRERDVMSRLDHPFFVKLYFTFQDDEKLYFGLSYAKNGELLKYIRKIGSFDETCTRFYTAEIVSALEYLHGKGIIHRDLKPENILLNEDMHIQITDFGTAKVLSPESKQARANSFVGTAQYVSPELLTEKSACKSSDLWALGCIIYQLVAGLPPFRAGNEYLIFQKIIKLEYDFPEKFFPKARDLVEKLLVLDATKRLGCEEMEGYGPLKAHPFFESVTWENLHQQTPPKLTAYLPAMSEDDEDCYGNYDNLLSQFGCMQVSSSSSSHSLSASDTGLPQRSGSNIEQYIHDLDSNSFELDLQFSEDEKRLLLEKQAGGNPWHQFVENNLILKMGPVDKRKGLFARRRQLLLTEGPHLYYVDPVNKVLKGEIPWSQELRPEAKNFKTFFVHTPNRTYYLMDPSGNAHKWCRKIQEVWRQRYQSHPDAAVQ
Experiment: Cellular testing of PDK1 kinase inhibitors in PC3 cells (Luminex, phospho-T308-PKB)
Type: cell-based
Conditions: 30 min, serum-free

See these solved cases before continuing.
Problem: What value of IC50 has been reported for the following molecule? Cn1cc(-c2cnc3[nH]cc(-c4cc(C(C)(O)c5cccc(F)c5)[nH]n4)c3c2)cn1 (stereo not shown)
Result: 0.5 to 1000 nM

Problem: What value of IC50 has been reported for the following molecule? Cn1cc(-c2cnc3[nH]cc(-c4csc(Cc5ccccc5F)n4)c3c2)cn1
Result: 1000 to 10000 nM

Problem: What value of IC50 has been reported for the following molecule? Cn1cc(-c2cnc3[nH]cc(-c4nnc(C5(c6ccccc6F)CC5)o4)c3c2)cn1
Result: 0.5 to 1000 nM

Problem: What value of IC50 has been reported for the following molecule? Cn1cc(-c2cnc3[nH]cc(-c4n[nH]c(Cc5ccccc5F)n4)c3c2)cn1
Result: 1000 to 10000 nM

Problem: What value of IC50 has been reported for the following molecule? Cn1cc(-c2cnc3[nH]cc(-c4nc(C5(c6ccccc6Cl)CC5)no4)c3c2)cn1
Result: 1000 to 10000 nM

Problem: What value of IC50 has been reported for the following molecule? CN[C@@H](c1ccccc1)c1nnc(-c2c[nH]c3ncc(-c4cnn(C)c4)cc23)o1
Result: 1000 to 10000 nM

Problem: What value of IC50 has been reported for the following molecule? Cn1cc(-c2cnc3[nH]cc(-c4cc([C@@](C)(O)c5ccccc5)on4)c3c2)cn1 (single isomer, unassigned)
Result: 0.5 to 1000 nM

Problem: What value of IC50 has been reported for the following molecule? Cn1cc(-c2cnc3[nH]cc(-c4cc(C(O)c5ccccc5)nn4CCO)c3c2)cn1 (stereo not shown)
Result: 1000 to 10000 nM

Next:
Problem: What value of IC50 has been reported for the following molecule? Cn1cc(-c2cnc3[nH]cc(-c4nnc(C(F)c5cccc(F)c5)o4)c3c2)cn1 (stereo not shown)
Result: 1000 to 10000 nM

Problem: What value of IC50 has been reported for the following molecule? Cn1cc(-c2cnc3[nH]cc(-c4nnc(C(C)(O)c5ccccc5F)o4)c3c2)cn1 (stereo not shown)
Result: 0.5 to 1000 nM

Problem: What value of IC50 has been reported for the following molecule? Cn1cc(-c2cnc3[nH]cc(-c4nnc(C5(c6ccccc6Cl)CC5)o4)c3c2)cn1
Result: 0.5 to 1000 nM

###

biological target: PDK1 (Homo sapiens, UniProt O15530); construct: endogenous in cells; host or cells: PC3 cells; assay: Cellular testing of PDK1 kinase inhibitors in PC3 cells (Luminex, phospho-T308-PKB); assay type: cell-based; conditions: 30 min, serum-free
// values below are reported IC50

See these solved cases before continuing.
Problem: What value of IC50 has been reported for the following molecule? Cn1cc(-c2cnc3[nH]cc(-c4noc(C(C)(O)c5ccccc5)n4)c3c2)cn1 (stereo not drawn)
Result: 0.0005 to 1 µM

Problem: What value of IC50 has been reported for the following molecule? Cn1cc(-c2cnc3[nH]cc(-c4nnc(C(O)c5cccc(Cl)c5Cl)o4)c3c2)cn1 (stereo not drawn)
Result: 0.0005 to 1 µM

Problem: What value of IC50 has been reported for the following molecule? Cn1cc(-c2cnc3[nH]cc(-c4n[nH]c(C(C)(O)c5ccccc5)n4)c3c2)cn1 (stereo not drawn)
Result: 1 to 10 µM

Next:
Problem: What value of IC50 has been reported for the following molecule? Cn1cc(-c2cnc3[nH]cc(-c4nnc(C5(c6ccnc(Cl)c6)CC5)o4)c3c2)cn1
Result: 1 to 10 µM

###

// values below are reported pIC50
Target: PDK1 (Homo sapiens, UniProt O15530)
Construct: His6 (N)
Sequence (O15530 51-556 limits assumed): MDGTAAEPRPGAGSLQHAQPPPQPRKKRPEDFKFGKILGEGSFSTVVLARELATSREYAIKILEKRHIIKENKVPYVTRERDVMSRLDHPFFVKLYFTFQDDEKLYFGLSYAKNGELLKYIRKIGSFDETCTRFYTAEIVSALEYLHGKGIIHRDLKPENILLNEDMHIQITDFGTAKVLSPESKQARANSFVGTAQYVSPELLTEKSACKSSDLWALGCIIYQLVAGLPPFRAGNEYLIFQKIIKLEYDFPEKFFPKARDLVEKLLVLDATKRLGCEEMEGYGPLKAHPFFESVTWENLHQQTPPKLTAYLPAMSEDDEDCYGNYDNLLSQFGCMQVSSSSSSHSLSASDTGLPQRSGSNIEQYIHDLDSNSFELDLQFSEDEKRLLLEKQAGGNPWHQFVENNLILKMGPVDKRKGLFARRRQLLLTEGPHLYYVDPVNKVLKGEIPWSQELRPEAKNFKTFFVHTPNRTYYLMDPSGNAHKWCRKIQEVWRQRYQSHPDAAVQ
Assay: Test for the inhibition of PDK1 (flashplate, 33P-ATP)
Conditions: His6-PDK1 (1-50) 3.4 nM, 4 μM ATP, 30° C., 60 min; read-out: IC50 [PDK1] biochemical
pIC50: −log10 of the molar value.

Problem: What value of pIC50 has been reported for the following compound? Cn1cc(-c2cnc3[nH]cc(-c4cc(C(O)(c5ccnnc5)C(C)(C)C)on4)c3c2)cn1 (centres unmarked) [A100]
Result: 6.00 to 9.30

Problem: What value of pIC50 has been reported for the following compound? Cn1cc(-c2cnc3[nH]cc(-c4cc([C@@](C)(O)c5ccccc5)on4)c3c2)cn1 (single isomer, unassigned) [A34]
Result: 6.00 to 9.30

Problem: What value of pIC50 has been reported for the following compound? Cn1cc(-c2cnc3[nH]cc(-c4cc(C(C)(O)c5cccc(F)c5)on4)c3c2)cn1 (centres unmarked) [A36]
Result: 6.00 to 9.30

Problem: What value of pIC50 has been reported for the following compound? Cn1cc(-c2cnc3[nH]cc(-c4nnc(C5(c6ccnc(Cl)c6)CC5)o4)c3c2)cn1 [A91]
Result: 5.00 to 6.00

Problem: What value of pIC50 has been reported for the following compound? Cn1cc(-c2cnc3[nH]cc(-c4cc(C(C)(O)c5ccccc5Cl)[nH]n4)c3c2)cn1 (centres unmarked) [A88]
Result: 6.00 to 9.30

Next:
Problem: What value of pIC50 has been reported for the following compound? CC[C@](O)(c1cc(-c2c[nH]c3ncc(-c4cnn(C)c4)cc23)no1)c1ccccc1F (single isomer, unassigned) [A92]
Result: 6.00 to 9.30

Problem: What value of pIC50 has been reported for the following compound? Cn1cc(-c2cnc3[nH]cc(-c4nnc(C5(c6cccnc6)CC5)o4)c3c2)cn1 [A124]
Result: 6.00 to 9.30

Problem: What value of pIC50 has been reported for the following compound? Cn1cc(-c2cnc3[nH]cc(-c4noc(Cc5ccccc5F)n4)c3c2)cn1 [A13]
Result: 5.00 to 6.00
